tested on: HOP-92 NSCLC; test: NCI-60 one-dose screen, 48 h (100 = growth as untreated, 0 = no growth, -100 = all killed); details: 10 µM unless noted
This is part of a sample that, as a whole, favours compounds with a hit. Of some 83,000 tested, about 20% had one in any assay. Active and inactive are the calls of the source. Rule for the calls: active = growth percent below 10; inactive = the rest.
PROPERTY_LABEL: growth

[[record]]
compound = "CC1NC(C)c2ccc3ccccc3c2O1 (centres undefined)"
property_label = "growth"
observed_value = "101% (inactive)"


Q: Give the measured growth for "CC(=O)Nc1cscc1NC(C)=O"
Result: 112% (inactive)

Q: Give the measured growth for "CN(C)C(=S)N(C)C"
Result: 93.4% (inactive)

Q: Give the measured growth for "O=C(c1ccncc1)c1c(Cc2ccccc2)ccc2ccccc12"
Result: 82% (inactive)

* * *

Below, each entry is listed alongside its reported growth.
system: COLO 205 colon; assay: NCI-60 one-dose screen, 48 h (100 = growth as untreated, 0 = no growth, -100 = all killed); conditions: 10 µM unless noted
About 83,000 compounds went through this panel and 20% of them were active in at least one assay; those are over-represented in the sample as a whole.
Value expressed in %; do not type the unit.

Take a look at these entries with their results.
[[record]]
molecule = "CN(C)CC(CN(C)C)C(O)c1ccccc1 (configuration not stated)"
observed_value = 110

[[record]]
molecule = "Cc1c(Cl)cc(Cl)c(N)c1Cl"
observed_value = 108

[[record]]
molecule = "CCOc1ccc(/C=C\\C(=O)O)cc1"
observed_value = 129

[[record]]
molecule = "O=P(O)(O)OC1C(OP(=O)(O)O)C(OP(=O)(O)O)C(OP(=O)(O)O)C(OP(=O)(O)O)C1OP(=O)(O)O.[Cu+2] (configuration not stated)"
observed_value = 111

[[record]]
molecule = "Cc1nc(Nc2ccc(Cl)cc2)c2cnn(-c3ccccc3)c2n1"
observed_value = 102


Q: Give the measured growth for O=C(O)C(Cc1ccc(OS(=O)(=O)Cc2ccccc2)cc1)NS(=O)(=O)Cc1ccccc1 (configuration not stated)
Result: 114

Q: Give the measured growth for "COC(=O)c1nc(N)nc(C(=O)OC)c1C(=O)c1ccc(F)cc1"
Result: 117

Q: Give the measured growth for "COc1ccc(/C=N/Nc2nc3ccccc3s2)cc1"
Result: 84.1

* * *

tested on: OVCAR-5 ovarian; test: NCI-60 one-dose screen, 48 h (100 = growth as untreated, 0 = no growth, -100 = all killed); details: 10 µM unless noted
The panel holds about 83,000 compounds, 20% with a hit somewhere; the sample as a whole holds those more often. The source made the active and inactive calls. Rule for the calls: active = growth percent below 10; inactive = the rest.
PROPERTY_LABEL: growth

Take a look at these entries with their results.
[[record]]
compound = "CCN(CC)CCO/N=C1\\CC(c2ccc(OC)c(OC)c2)Oc2ccccc21 (stereo not given)"
system_under_test = "OVCAR-5 ovarian"
observed_value = "95.4% (inactive)"

[[record]]
compound = "COc1ccc(CCO)cc1"
system_under_test = "OVCAR-5 ovarian"
observed_value = "103% (inactive)"

[[record]]
compound = "CC(=O)c1cccc(OC(=O)c2ccccc2)c1"
system_under_test = "OVCAR-5 ovarian"
observed_value = "104% (inactive)"

[[record]]
compound = "c1ccc2c[n+](Cc3ccc4ccccc4n3)ccc2c1"
system_under_test = "OVCAR-5 ovarian"
observed_value = "105% (inactive)"

[[record]]
compound = "O=C(/C=C/C=C/c1ccc2c(c1)OCO2)N1CCCCC1"
system_under_test = "OVCAR-5 ovarian"
observed_value = "96.4% (inactive)"

[[record]]
compound = "CC(C)(C)OC(=O)c1ccc(NCc2cc(O)ccc2O)cc1"
system_under_test = "OVCAR-5 ovarian"
observed_value = "106% (inactive)"


Please look at the following compound next.
Q: Give the measured growth for "COc1ccc(COC=O)cc1"
Result: 101% (inactive)

* * *

test system: OVCAR-8 ovarian; assay: NCI-60 one-dose screen, 48 h (100 = growth as untreated, 0 = no growth, -100 = all killed); conditions: 10 µM unless noted
Compounds without any hit were thinned out: in the full panel of roughly 83,000, 20% have a hit.
Below, each entry is listed alongside its reported growth.
Value expressed in %; do not type the unit.

Take a look at these entries with their results.
[[record]]
molecule = "COC(=O)CCOc1ccccc1"
unit_name = "%"
observed_value = 91.1

[[record]]
molecule = "CS(=O)(=O)c1nsc(N)n1"
unit_name = "%"
observed_value = 104

[[record]]
molecule = "CN(C=O)c1ccccc1"
unit_name = "%"
observed_value = 96.6

[[record]]
molecule = "OC1CCCN(Cc2ccccc2)C1 (stereo not drawn)"
unit_name = "%"
observed_value = 105

[[record]]
molecule = "O=C(O)c1ccc2c3ccc(C(=O)O)c4c(C(=O)O)ccc(c5ccc(C(=O)O)c1c25)c43"
unit_name = "%"
observed_value = 98

[[record]]
molecule = "C/C(CC(C)C)=N/NC(N)=S"
unit_name = "%"
observed_value = 69


Q: Give the measured growth for "Cc1cc(-c2ccc(N=Nc3c(C)nn(-c4ccc(S(=O)(=O)O)cc4)c3O)c(C)c2)ccc1N=Nc1ccc(O)c(C(=O)O)c1"
Result: 95.7

Q: Give the measured growth for "COc1cc2c(cc1O)C(=O)CCCC2"
Result: 117

Q: Give the measured growth for "OCc1ccccc1F"
Result: 83.3

Q: Give the measured growth for "C=CCN1C(=O)c2ccccc2C1=O"
Result: 97.5

Q: Give the measured growth for "NCCSSC/C=C\CSSCCN"
Result: 97

Q: Give the measured growth for COC1C(OC(N)=O)C(O)C(Oc2ccc3c(O)c(NC(=O)c4ccc(O)c(CC=C(C)C)c4)c(=O)oc3c2C)OC1(C)C (stereo not drawn)
Result: 103

Q: Give the measured growth for "O=S(=O)(O)c1ccc2cc(O)ccc2c1"
Result: 102

* * *

test system: ACHN renal; test: NCI-60 one-dose screen, 48 h (100 = growth as untreated, 0 = no growth, -100 = all killed); details: 10 µM unless noted
The panel holds about 83,000 compounds, 20% with a hit somewhere; the sample as a whole holds those more often.
PROPERTY_LABEL: growth (%)
Value expressed in %; do not type the unit.

Take a look at these entries with their results.
[[record]]
smiles_input = "CC(=O)Oc1cc(C)c(OC(C)=O)c(C)c1C"
unit_name = "%"
observed_value = 100

[[record]]
smiles_input = "CC(=O)Oc1cc(C(C)C)c(OCCN(C)C)cc1C"
unit_name = "%"
observed_value = 99.4

[[record]]
smiles_input = "Cc1cc(Cl)nc(Nc2ccccc2)n1"
unit_name = "%"
observed_value = 98.9

[[record]]
smiles_input = "CC1=CC(=O)c2cccc(NC3=NCCO3)c21"
unit_name = "%"
observed_value = 98.7

[[record]]
smiles_input = "CCCCCCCCCCCCCCCCC(=O)O"
unit_name = "%"
observed_value = 112

[[record]]
smiles_input = "O=C(O)C#Cc1ccc(Cl)cc1"
unit_name = "%"
observed_value = 103


Q: Give the measured growth for "CCCC(=O)Oc1ccc2ccccc2c1"
Result: 99

* * *

system: RXF 393 renal; experiment: NCI-60 one-dose screen, 48 h (100 = growth as untreated, 0 = no growth, -100 = all killed); conditions: 10 µM unless noted
About 83,000 compounds went through this panel and 20% of them were active in at least one assay; those are over-represented in the sample as a whole.
PROPERTY_LABEL: growth (%)
Value expressed in %; do not type the unit.

[[record]]
compound = "CC(C)(C)OC(=O)c1ccc(NCc2cc(O)ccc2O)cc1"
observed_value = -68.3

[[record]]
compound = "CC(O)CCNC(c1ccccc1)C(O)c1ccccc1 (configuration not stated)"
observed_value = 115

[[record]]
compound = "Cc1c(Cl)cc(Cl)c(N)c1Cl"
observed_value = 108

[[record]]
compound = "Cc1c(O)nc(N)[nH]c1=O"
observed_value = 118

[[record]]
compound = "CC(C)=NOC(C)C(=O)O (configuration not stated)"
observed_value = 116


Q: Provide growth, tested on RXF 393 renal, for "CN(C)C(=S)N(C)C" .
Result: 114

Q: Provide growth, tested on RXF 393 renal, for "COc1ccc(S(=O)(=O)c2ccc(F)cc2)cc1" .
Result: 138

* * *

test system: UO-31 renal; test: NCI-60 one-dose screen, 48 h; settings: 10 µM unless noted
About 83,000 compounds went through this panel and 20% of them were active in at least one assay; those are over-represented in the sample as a whole. Active and inactive are the calls of the source. How the source made its calls: active means growth percent below 10; inactive means the rest.
Select the correct class. Options are yes = active, no = inactive and nothing else.

Solved cases (6 shown):
[[record]]
compound = "OCc1ccccc1F"
system_under_test = "UO-31 renal"
group = "no"

[[record]]
compound = "C/C(=C\\c1ccccc1)C(O)C(=O)c1nc2ccc([N+](=O)[O-])cc2[nH]c1=O (stereo not given)"
system_under_test = "UO-31 renal"
group = "no"

[[record]]
compound = "ON=C(C1CCCCC1)C1CCCCC1"
system_under_test = "UO-31 renal"
group = "no"

[[record]]
compound = "CCOC(C)=N"
system_under_test = "UO-31 renal"
group = "no"

[[record]]
compound = "CC1OS(=O)OC1C (stereo not given)"
system_under_test = "UO-31 renal"
group = "no"

[[record]]
compound = "NCCSSC/C=C\\CSSCCN"
system_under_test = "UO-31 renal"
group = "no"


Okay, now this compound:
Q: In this assay, the call recorded for "O=c1[nH]c(=O)c2[nH]c(=O)[nH]c2[nH]1" was what?
Result: no
